Each record here notes measured Papp at 4 h, 150 µg/mL.
Assay: in vitro
Conditions: PAMPA
Where a name gives a salt, the structure may show the parent alone.
Experimental Readout: Papp at 4 h, 150 µg/mL (×10⁻⁶ cm/s)

# Compound, Experimental Readout, Meas Value
records = [
    ("COCCc1ccc(OCC(O)CNC(C)C)cc1 (centres unmarked) [metoprolol tartrate, reference compound]", "Papp at 4 h, 150 µg/mL", 120),
    ("CC(=O)[C@H]1CC[C@H]2[C@@H]3CCC4=CC(=O)CC[C@]4(C)[C@H]3CC[C@]12C", "Papp at 4 h, 150 µg/mL", 1110),
]
